pKi: −log10 of the molar value.
# pKi per entry for VGLUT

Prompt line: Can you look up pKi on VGLUT for O=C(O)c1cc(C(=O)O)c2ccc3cc4ccccc4cc3c2n1 ?
Response line: ~4.22

Prompt line: Can you look up pKi on VGLUT for O=C(O)c1cc(C(=O)O)c2c(ccc3cc4ccccc4cc32)n1 ?
Response line: ~4.22

Data provenance: paper PMC3943356
